src = patent US20250163127A1

- tested-system: CD28 (human) (UniProt P10747)
- protocol-text: flow cytometry, cells expressing CD28
Below, each entry is listed with its recorded MFI.
result-type: MFI

binder	result-type	result
variant CD80 V22A/L70Q/S121P (Fc fusion) VIHVTKEVKEVATLSCGHNVSAEELAQTRIYWQKEKKMVLTMMSGDMNIWPEYKNRTIFDITNNLSIVIQALRPSDEGTYECVVLKYEKDAFKREHLAEVTLSVKADFPTPSISDFEIPTPNIRRIICSTSGGFPEPHLSWLENGEELNAINTTVSQDPETELYAVSSKLDFNMTTNHSFMCLIKYGHLRVNQTFNWNTTKQEHFPDN	MFI	5 MFI
variant CD80 A91G/L102S (Fc fusion) VIHVTKEVKEVATLSCGHNVSVEELAQTRIYWQKEKKMVLTMMSGDMNIWPEYKNRTIFDITNNLSIVILALRPSDEGTYECVVLKYEKDGFKREHLAEVTSSVKADFPTPSISDFEIPTSNIRRIICSTSGGFPEPHLSWLENGEELNAINTTVSQDPETELYAVSSKLDFNMTTNHSFMCLIKYGHLRVNQTFNWNTTKQEHFPDN	MFI	6 MFI
variant CD80 K54M/L70Q/A91G/Y164H (Fc fusion) VIHVTKEVKEVATLSCGHNVSVEELAQTRIYWQKEKKMVLTMMSGDMNIWPEYMNRTIFDITNNLSIVIQALRPSDEGTYECVVLKYEKDGFKREHLAEVTLSVKADFPTPSISDFEIPTSNIRRIICSTSGGFPEPHLSWLENGEELNAINTTVSQDPETELHAVSSKLDFNMTTNHSFMCLIKYGHLRVNQTFNWNTTKQEHFPDN	MFI	68 MFI
variant CD80 E24G/R29D/Y31L/Q33H/K36G/M38I/T41A/M43R/M47T/F59L/E81V/L85R/K89N/A91T/F92P/K93V/R94L/H96R/N149S/C182S (Fc fusion) VIHVTKEVKEVATLSCGHNVSVEGLAQTDILWHKEGKIVLAMRSGDTNIWPEYKNRTILDITNNLSIVILALRPSDEGTYVCVVRKYENDTPVLERLAEVTLSVKADFPTPSISDFEIPTSNIRRIICSTSGGFPEPHLSWLENGEELSAINTTVSQDPETELYAVSSKLDFNMTTNHSFMSLIKYGHLRVNQTFNWNTTKQEHFPDN	MFI	1070 MFI
